Value source: patent US8309593B2

# System: GM3
# Protocol description: GM3 Elisa assay
# Type: cell-based
# Run parameters: Table 3 (title: IC 50 Values); read-out: IC50_uM_Mean
pIC50: −log10 of the molar value.
Attribute measured: pIC50

Sample answers from the record:
{"columns": ["Molecule", "pIC50"],
 "data": [
  ["CCCCCCCC(=O)N[C@H](CN1[C@H](C)CC[C@@H]1C)[C@H](O)c1ccc2c(c1)OCCO2 [Compound 549]", "5.00 to 5.52"],
  ["CCCCCCCCCCCCCCCC(=O)N[C@H](CN(C)C1CCCC1)C(O)c1ccc2c(c1)OCCO2 (stereo partly shown) [Compound 685]", "5.00 to 5.52"],
  ["COC[C@H]1CCCN1C[C@@H](NC(=O)CCCCCC(=O)c1ccc(OC)cc1)[C@@H](O)c1ccc2c(c1)OCCO2 [Compound 539]", "5.00 to 5.52"],
  ["CC(O)(CCCCCC(=O)N[C@H](CN1CCCC1)[C@@H](O)c1ccc2c(c1)OCCO2)C1CCCCC1 (stereo partly shown) [Compound 641]", "≥ 7.00"],
  ["COc1ccc(C(=O)CCCCCC(=O)N[C@H](CN2[C@H](C)CC[C@@H]2C)[C@H](O)c2ccc3c(c2)OCCO3)cc1 [Compound 548]", "5.52 to 6.00"]
]}

# input Any idea what its pIC50 is? The molecule is COc1ccc(OCCC(=O)N[C@@H](CN2CCCC2)[C@@H](O)c2ccc3c(c2)OCCO3)cc1 [Compound 674]
# output 5.00 to 5.52

# input Which pIC50 is reported for this molecule? CCCCCCCC(=O)N[C@H](CN1CC2CC2C1)[C@@H](O)c1ccc2c(c1)OCCO2 (stereo partly shown) [Compound 517]
# output 6.00 to 7.00

* * *

A collection of compounds and their measured IC50
# System: GM3
# Protocol description: GM3 Elisa assay
# Type: cell-based
# Run parameters: Table 3 (title: IC 50 Values); read-out: IC50_uM_Mean

Consider the following illustrative entries.
{"columns": ["Compound", "Assay value"],
 "data": [
  ["COc1ccc(C(=O)CCCCCC(=O)N[C@H](CN2CCCC2)[C@@H](O)c2ccc(OC(F)(F)F)cc2)cc1 [Compound 666]", "100 to 1000 nM"],
  ["COc1ccc(OCCC(=O)N[C@@H](CN2CCCC2)[C@@H](O)c2ccc3c(c2)OCCO3)cc1 [Compound 675]", "3000 to 10000 nM"]
]}

// next entry
# input Given the compound O=C(CCCCS(=O)(=O)C1CCCCC1)N[C@H](CN1CC[C@@H](F)C1)[C@@H](O)c1ccc(OCc2ccccc2)cc1 [Compound 572] , what is its reported IC50?
# output 100 to 1000 nM
